assay_system: human 5-HT2BR (Homo sapiens)
Sequence (P41595 whole entry): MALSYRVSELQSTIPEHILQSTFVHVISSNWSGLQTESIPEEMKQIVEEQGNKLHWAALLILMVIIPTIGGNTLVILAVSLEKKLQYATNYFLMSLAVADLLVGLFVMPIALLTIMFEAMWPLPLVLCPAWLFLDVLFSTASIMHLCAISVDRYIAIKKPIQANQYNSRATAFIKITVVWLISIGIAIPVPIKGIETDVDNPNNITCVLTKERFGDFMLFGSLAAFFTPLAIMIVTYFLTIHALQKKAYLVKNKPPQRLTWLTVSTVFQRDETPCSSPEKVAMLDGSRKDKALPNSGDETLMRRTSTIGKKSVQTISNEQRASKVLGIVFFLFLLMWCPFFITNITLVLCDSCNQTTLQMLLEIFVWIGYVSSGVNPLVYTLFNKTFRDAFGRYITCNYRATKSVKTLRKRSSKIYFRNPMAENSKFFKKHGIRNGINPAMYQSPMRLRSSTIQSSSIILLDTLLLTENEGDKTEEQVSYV
assay_info: radioligand binding (NIMH PDSP)
measurement_parameters: read-out: Ki 5-HT2BR
Rule for this label: Yes means Ki is less than 500 nM; No means Ki is at least 500 nM.

Use the examples below as a reference point.
CCN(CC)Cc1nc2ccccc2n1Cc1ccc(Cl)cc1 [Compound 24]
Yes
c1ccc2c(c1)nc(CN1CCCC1)n2CC1CCCC1 [Compound 20]
No
Clc1ccc(Cn2ccnc2CN2CCCC2)cc1 [Compound 9]
No
FC(F)(F)c1ccc(Cn2c(CN3CCCC3)nc3ccccc32)cc1 [Compound 6]
Yes
CC(C)(C)OC(=O)N1CCN(Cc2nc3ccccc3n2Cc2ccc(Cl)cc2)CC1 [Compound 25]
Yes

# evaluate next
State whether 500 nM exceeds Ki recorded for Clc1ccc(Cn2c(CN3CCCC3)cc3ccccc32)cc1 [Compound 11] .
Yes
